From: patent US20180030149A1

Listing: kon of selected binders
Measured target: T1, recombinant human ErbB3 monomeric protein (cleaved rhErbB3) (human, UniProt P21860 20-643, limits assumed)
T1 construct: Monomer made by protease cleavage of the Fc fusion; also called Monomeric ErbB3
Assay overview: SPR Biacore 37 C; supernatant antibody captured on anti-human Fc, cleaved rhErbB3 injected
Write the number in M⁻¹ s⁻¹ without appending the unit.

Example entries and their recorded answers appear below.
{"columns": ["Binder", "kon (M⁻¹ s⁻¹)"],
 "data": [
  ["Sh24C05-29 (antibody, human IgG1, kappa, V domains shown, Humanized, human IgG1/kappa) VH: QVQLVESGGGVVQPGRSLRLSCAASGFTFSDYAMSWVRQAPGKGLEWVATISDGGTYTYYPDNVKGRFTISRDNSKNTLYLQMSSLRAEDTAVYYCAREWGDYDGFDYWGQGTLVTVSS VL: DIQMTQSPSSLSASVGDRVTITCRASQEISGYLSWYQQKPGKAPKRLIYAASTLDSGVPSRFSGSGSGTEFTLTISSLQPEDFATYYCLQYDSYPYTFGQGTKLEIKR", "3.25e+06"],
  ["Sh24C05-33 (antibody, human IgG1, kappa, V domains shown, Humanized, human IgG1/kappa) VH: EVQLVESGGGLVKPGGSLRLSCAASGFTFSDYAMSWVRQAPGKGLEWVSTISDGGTYTYYPDNVKGRFTISRDNAKNSLYLQMNSLRAEDTAVYYCAREWGDYDGFDYWGQGTLVTVSS VL: DIQMTQSPSSLSASVGDRVTITCRASQEISGYLSWYQQKPGKAPKLLIYAASTLDSGVPSRFSGSGSGTDFTFTISSLQPEDIATYYCLQYDSYPYTFGQGTKLEIKR", "4.02e+06"]
]}

// next entry
Please supply the value of reported kon for the item Sh24C05-22 (antibody, human IgG1, kappa, V domains shown, Humanized, human IgG1/kappa) VH: EVQLLESGGGLVQPGGSLRLSCAASGFTFSDYAMSWVRQAPGKGLEWVSTISDGGTYTYYPDNVKGRFTISRDNSKNTLYLQMNSLRAEDTAVYYCAREWGDYDGFDYWGQGTLVTVSS VL: DIQMTQSPSSLSASVGDRVTITCRASQEISGYLSWFQQKPGKAPKSLIYAASTLDSGVPSRFSGSGSGTDFTLTISSLQPEDFATYYCLQYDSYPYTFGQGTKLEIKR
2.79e+06
